The values you see were collected from patent US12595248B2.

Measured on: PRMT5-MEP50 enzyme complex (Homo sapiens)
Construct: Full-length (FL)-PRMT5-MEP50 enzyme complex (recombinant proteins from baculovirus-transfected Sf21 cells: FL-PRMT5; MW=73837 kDa and FL-MEP50; MW=38614); made in house; host or cells: baculovirus-transfected Sf21 cells
Test summary: PRMT5-MEP50 Enzyme Methylation Assay (Version A)
Format: biochemical
Measurement parameters: second of two EC50s: 7 parameters biphasic model; read-out: Enzyme Methylation Assay Version A (EC50_2)
Value type: EC50 (nM)

Compound	Measured on	EC50 [nM]
O=C(c1ccc2c(c1)NCCN(CC(F)(F)F)C2=O)N1CC[C@H](N2CCc3ccccc3C2)[C@@H](O)C1	PRMT5-MEP50 enzyme complex (Homo sapiens)	905
Cc1c(Br)cnc2ncc(C(=O)N3CC[C@H](N4CCc5ccccc5C4)[C@@H](O)C3)n12	PRMT5-MEP50 enzyme complex (Homo sapiens)	1680
CCOc1nc(Br)cn2cc(C(=O)N3CC[C@H](N4CCc5ccccc5C4)[C@@H](O)C3)nc12	PRMT5-MEP50 enzyme complex (Homo sapiens)	120
O=C(c1cc2ncc(Br)cn2n1)N1CC[C@H](N2CCc3ccccc3C2)[C@@H](O)C1	PRMT5-MEP50 enzyme complex (Homo sapiens)	1820
CC(=O)N1CC2CC1CC2Nc1cc(C(=O)N2CC[C@H](N3CCc4ccccc4C3)[C@@H](O)C2)c(F)cn1 (single isomer, unassigned)	PRMT5-MEP50 enzyme complex (Homo sapiens)	5490

1 = O=C1Nc2cc(C(=O)N3CC[C@H](N4CCc5ccccc5C4)[C@@H](O)C3)ccc2OC1C1CC1 (single isomer, unassigned)
2 = O=C(c1ccc2c(O)c(C3CC3)cnc2c1)N1CC[C@H](N2CCc3ccccc3C2)[C@@H](O)C1
3 = Cc1nc2ncc(C(=O)N3CC[C@H](N4CCc5ccccc5C4)[C@@H](O)C3)n2cc1Br
4 = O=C(c1nn2cc(Br)cnc2c1Cl)N1CC[C@H](N2CCc3ccccc3C2)[C@@H](O)C1
# rank by EC50, ascending (min first) Give me the labels in the order the question wants.
4, 3, 2, 1

a = CN1CCC(Nc2cc(C(=O)N3CC[C@H](N4CCc5ccccc5C4)[C@@H](O)C3)c(F)cn2)CC1=O (some centres unmarked)
b = O=C(c1ccc2c(O)c(CC(F)(F)F)cnc2c1)N1CC[C@H](N2CCc3ccccc3C2)[C@@H](O)C1
For the pair a and b , which entry has the numerically smaller recorded EC50? Answer with the label corresponding to your selection.
b

* * *

Measured on: PRMT5 (Homo sapiens, UniProt O14744)
Construct: seeded with 4000 MCF-7 cells in 30 μl media; endogenous in cells
Test summary: PRMT5 Cell Target Engagement (TE) Assay
Measurement parameters: MCF-7 cells, treated for 3 days, symmetric dimethylation of arginine (SDMA) by high content imaging
Value type: EC50 (nM)

a = O=C(c1ccc2c(c1)NCCN(C1CCOC1)C2=O)N1CC[C@H](N2CCc3ccccc3C2)[C@@H](O)C1 (stereo partly shown)
b = N#CC1(c2ccc3nc(C(=O)N4CC[C@H](N5CCc6ccccc6C5)[C@@H](O)C4)cn3c2)CC1
For the pair a and b , which entry has the numerically smaller recorded EC50? Answer with the label corresponding to your selection.
a

* * *

Measured on: PRMT5-MEP50 enzyme complex (Homo sapiens, UniProt O14744)
Construct: Full-length (FL)-PRMT5-MEP50 enzyme complex (recombinant proteins from baculovirus-transfected Sf21 cells: FL-PRMT5; MW=73837 kDa and FL-MEP50; MW=38614); made in house; host or cells: baculovirus-transfected Sf21 cells
Sequence (O14744 whole entry): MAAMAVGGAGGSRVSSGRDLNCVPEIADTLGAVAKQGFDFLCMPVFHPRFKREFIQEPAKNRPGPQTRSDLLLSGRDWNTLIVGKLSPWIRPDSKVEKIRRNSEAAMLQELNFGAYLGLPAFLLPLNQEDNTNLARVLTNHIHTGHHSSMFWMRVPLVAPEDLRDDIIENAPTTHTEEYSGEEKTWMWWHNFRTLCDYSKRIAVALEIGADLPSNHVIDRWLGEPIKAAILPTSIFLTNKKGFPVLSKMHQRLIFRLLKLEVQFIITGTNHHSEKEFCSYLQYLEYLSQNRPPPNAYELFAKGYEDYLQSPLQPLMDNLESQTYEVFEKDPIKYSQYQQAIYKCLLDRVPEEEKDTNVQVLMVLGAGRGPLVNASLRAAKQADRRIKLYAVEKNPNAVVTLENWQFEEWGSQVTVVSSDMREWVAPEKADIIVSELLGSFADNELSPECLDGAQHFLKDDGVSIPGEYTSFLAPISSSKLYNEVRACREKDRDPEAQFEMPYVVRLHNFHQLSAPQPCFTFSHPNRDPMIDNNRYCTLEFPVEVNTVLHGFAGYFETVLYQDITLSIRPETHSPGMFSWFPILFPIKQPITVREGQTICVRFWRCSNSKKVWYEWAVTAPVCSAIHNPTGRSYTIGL
Sequence (Q9BQA1 whole entry partner): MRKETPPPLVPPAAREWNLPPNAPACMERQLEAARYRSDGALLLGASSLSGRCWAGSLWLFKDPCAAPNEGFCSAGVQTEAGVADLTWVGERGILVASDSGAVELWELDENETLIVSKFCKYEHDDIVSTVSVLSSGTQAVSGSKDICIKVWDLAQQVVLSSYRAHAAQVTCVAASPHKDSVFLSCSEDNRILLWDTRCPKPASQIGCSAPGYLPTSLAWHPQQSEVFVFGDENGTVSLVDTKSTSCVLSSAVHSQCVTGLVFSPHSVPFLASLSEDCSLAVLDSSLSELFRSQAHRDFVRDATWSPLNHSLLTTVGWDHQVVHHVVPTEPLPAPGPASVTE
Test summary: PRMT5-MEP50 Enzyme Methylation Assay (Version A)
Format: biochemical
Measurement parameters: second of two EC50s: 7 parameters biphasic model; read-out: Enzyme Methylation Assay Version A (EC50_2)
pEC50: −log10 of the molar value.
Value type: pEC50

Previously resolved entries follow.
Compound	pEC50
CC(=O)N1C[C@H]2CC[C@@H](C1)C2Nc1cc(C(=O)N2CC[C@H](N3CCc4ccccc4C3)[C@@H](O)C2)c(F)cn1 (stereo partly drawn)	5.37
Cc1cnc2nc(C(=O)N3CC[C@H](N4CCc5ccccc5C4)[C@@H](O)C3)cn2c1	6.61
O=C(c1cn2cc(Cl)cc(Br)c2n1)N1CC[C@H](N2CCc3ccccc3C2)[C@@H](O)C1	7.41
O=C(c1cc(NC2CCN3C(=O)CCC3C2)ncc1F)N1CC[C@H](N2CCc3ccccc3C2)[C@@H](O)C1 (single isomer, unassigned)	4.98

A = CC(=O)N1CCC(Nc2cc(C(=O)N3CC[C@H](N4CCc5ccccc5C4)[C@@H](O)C3)c(F)cn2)C1 (single isomer, unassigned) [Example 113]
B = Cc1cc(Cl)c2nc(C(=O)N3CC[C@H](N4CCc5ccccc5C4)[C@@H](O)C3)cn2c1
For the pair A and B , which entry has the numerically smaller recorded pEC50? Answer with the label corresponding to your selection.
A
(A: 5.02, B: 7.10)
